Biological target: ABL2 (Homo sapiens)
Sequence (P42684 whole entry): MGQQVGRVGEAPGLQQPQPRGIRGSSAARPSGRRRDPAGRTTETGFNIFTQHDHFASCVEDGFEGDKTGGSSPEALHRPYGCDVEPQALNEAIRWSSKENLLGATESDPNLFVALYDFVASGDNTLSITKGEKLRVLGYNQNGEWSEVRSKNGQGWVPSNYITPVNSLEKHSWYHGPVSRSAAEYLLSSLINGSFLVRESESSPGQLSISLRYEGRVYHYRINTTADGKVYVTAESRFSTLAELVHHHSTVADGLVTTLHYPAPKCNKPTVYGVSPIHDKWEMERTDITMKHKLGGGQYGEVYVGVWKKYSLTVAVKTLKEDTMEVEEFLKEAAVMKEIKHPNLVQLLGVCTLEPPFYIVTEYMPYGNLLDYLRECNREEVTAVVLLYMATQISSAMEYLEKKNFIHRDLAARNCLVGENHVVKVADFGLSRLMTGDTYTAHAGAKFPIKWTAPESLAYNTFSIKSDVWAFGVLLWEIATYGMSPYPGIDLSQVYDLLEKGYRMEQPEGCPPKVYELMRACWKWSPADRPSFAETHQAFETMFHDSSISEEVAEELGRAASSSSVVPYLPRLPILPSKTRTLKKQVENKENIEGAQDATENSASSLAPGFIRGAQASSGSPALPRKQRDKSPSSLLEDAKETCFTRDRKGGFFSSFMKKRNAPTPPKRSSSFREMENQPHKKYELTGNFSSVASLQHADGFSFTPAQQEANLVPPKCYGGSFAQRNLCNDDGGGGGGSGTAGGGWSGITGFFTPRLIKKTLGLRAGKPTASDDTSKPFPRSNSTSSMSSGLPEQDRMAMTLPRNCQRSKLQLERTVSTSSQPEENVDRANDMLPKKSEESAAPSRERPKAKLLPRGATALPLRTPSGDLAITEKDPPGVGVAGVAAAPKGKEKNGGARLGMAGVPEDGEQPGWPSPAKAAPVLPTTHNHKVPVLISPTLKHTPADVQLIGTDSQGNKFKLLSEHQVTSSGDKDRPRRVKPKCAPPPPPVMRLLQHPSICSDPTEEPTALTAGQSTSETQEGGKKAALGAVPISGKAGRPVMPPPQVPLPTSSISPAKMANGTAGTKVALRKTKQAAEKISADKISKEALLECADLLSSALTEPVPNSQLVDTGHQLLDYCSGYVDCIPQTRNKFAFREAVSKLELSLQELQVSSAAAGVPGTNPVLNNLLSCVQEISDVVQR
Assay: KINOMEscan competition binding
Conditions: read-out: %Inh ABL2
Below, each entry is listed with its recorded inhibition at 1 µM.

{"columns": ["compound", "inhibition at 1 µM"],
 "data": [
  ["O=c1cc(N2CCOCC2)nc2n(Cc3cccc(Cl)c3Cl)c(C3CC3)nn12 [UNC10225469A]", "5%"],
  ["Cc1ccc(NC(=O)Nc2cccc(C(F)(F)F)c2)cc1 [UNC10225187A]", "3%"],
  ["COc1cccc(OC)c1C(=O)Nc1cccc(-c2nn3ccccc3c2-c2ccnc(Nc3cccc(F)c3)n2)c1 [UNC10225310A]", "100%"],
  ["CS(=O)(=O)Cc1ccc(Nc2nccc(-c3c(-c4cccc(NC(=O)C5CCCCC5)c4)nn4ncccc34)n2)cc1 [UNC10225159A]", "5%"],
  ["Cn1cc(-c2cnc(N)c3c(-c4ccc5c(c4)CCN5C(=O)Cc4ccccc4)csc23)cn1 [UNC10225012A]", "81%"]
]}

----------
Molecular target: CDK7 (Homo sapiens)
Sequence (P50613 whole entry): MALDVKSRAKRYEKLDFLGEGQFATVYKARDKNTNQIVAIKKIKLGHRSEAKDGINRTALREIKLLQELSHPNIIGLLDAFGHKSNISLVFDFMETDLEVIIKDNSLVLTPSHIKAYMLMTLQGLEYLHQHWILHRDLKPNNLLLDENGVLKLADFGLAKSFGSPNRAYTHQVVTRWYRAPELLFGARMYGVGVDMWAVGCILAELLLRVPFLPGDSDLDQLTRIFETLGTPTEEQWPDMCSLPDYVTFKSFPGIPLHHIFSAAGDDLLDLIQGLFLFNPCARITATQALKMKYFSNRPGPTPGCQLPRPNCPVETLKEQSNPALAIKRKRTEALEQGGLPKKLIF
Experiment: KINOMEscan competition binding
Conditions: read-out: %Inh CDK7
Decision: inhibition at 1 µM compared against 10%; not below it gives 1 (yes), below it gives 0 (no).

{"columns": ["compound", "tested target", "group"],
 "data": [
  ["Cn1cc(-c2cnc(N)c3c(-c4ccc5c(c4)CCN5C(=O)Cc4ccccc4)csc23)cn1 [UNC10225012A]", "CDK7 (Homo sapiens)", "1 (yes)"],
  ["Cc1ccc(NC(=O)Nc2cccc(C(F)(F)F)c2)cc1 [UNC10225187A]", "CDK7 (Homo sapiens)", "1 (yes)"],
  ["COc1cccc(OC)c1C(=O)Nc1cccc(-c2nn3ccccc3c2-c2ccnc(Nc3cccc(F)c3)n2)c1 [UNC10225310A]", "CDK7 (Homo sapiens)", "1 (yes)"],
  ["CS(=O)(=O)Cc1ccc(Nc2nccc(-c3c(-c4cccc(NC(=O)C5CCCCC5)c4)nn4ncccc34)n2)cc1 [UNC10225159A]", "CDK7 (Homo sapiens)", "0 (no)"],
  ["O=c1cc(N2CCOCC2)nc2n(Cc3cccc(Cl)c3Cl)c(C3CC3)nn12 [UNC10225469A]", "CDK7 (Homo sapiens)", "0 (no)"]
]}

----------
Target: LIMK1 (Homo sapiens, UniProt P53667)
Sequence (P53667 whole entry): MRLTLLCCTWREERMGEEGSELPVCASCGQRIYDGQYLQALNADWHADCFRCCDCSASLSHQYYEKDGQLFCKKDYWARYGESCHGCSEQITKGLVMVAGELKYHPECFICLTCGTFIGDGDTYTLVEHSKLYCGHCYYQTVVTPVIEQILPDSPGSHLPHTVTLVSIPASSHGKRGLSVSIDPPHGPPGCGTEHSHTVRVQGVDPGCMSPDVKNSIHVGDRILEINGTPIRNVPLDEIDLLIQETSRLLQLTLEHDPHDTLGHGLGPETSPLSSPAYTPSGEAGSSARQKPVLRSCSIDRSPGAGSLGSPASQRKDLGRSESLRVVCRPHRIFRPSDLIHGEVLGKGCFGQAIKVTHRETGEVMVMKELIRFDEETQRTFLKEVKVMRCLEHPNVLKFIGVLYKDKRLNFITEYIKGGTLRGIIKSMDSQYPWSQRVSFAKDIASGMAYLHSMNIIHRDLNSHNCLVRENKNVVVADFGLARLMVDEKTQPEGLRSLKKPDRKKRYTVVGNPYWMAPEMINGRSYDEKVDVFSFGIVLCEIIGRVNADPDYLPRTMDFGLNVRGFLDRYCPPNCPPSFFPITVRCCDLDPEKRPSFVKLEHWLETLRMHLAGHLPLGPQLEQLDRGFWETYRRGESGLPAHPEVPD
Experiment: KINOMEscan competition binding
Conditions: read-out: %Inh LIMK1

{"columns": ["compound", "inhibition at 1 µM [%]"],
 "data": [
  ["O=c1cc(N2CCOCC2)nc2n(Cc3cccc(Cl)c3Cl)c(C3CC3)nn12 [UNC10225469A]", 9],
  ["Cc1ccc(NC(=O)Nc2cccc(C(F)(F)F)c2)cc1 [UNC10225187A]", 0],
  ["CS(=O)(=O)Cc1ccc(Nc2nccc(-c3c(-c4cccc(NC(=O)C5CCCCC5)c4)nn4ncccc34)n2)cc1 [UNC10225159A]", 22],
  ["Cn1cc(-c2cnc(N)c3c(-c4ccc5c(c4)CCN5C(=O)Cc4ccccc4)csc23)cn1 [UNC10225012A]", 49],
  ["COc1cccc(OC)c1C(=O)Nc1cccc(-c2nn3ccccc3c2-c2ccnc(Nc3cccc(F)c3)n2)c1 [UNC10225310A]", 31]
]}

----------
Molecular target: AURKB (Homo sapiens)
Sequence (Q96GD4 whole entry): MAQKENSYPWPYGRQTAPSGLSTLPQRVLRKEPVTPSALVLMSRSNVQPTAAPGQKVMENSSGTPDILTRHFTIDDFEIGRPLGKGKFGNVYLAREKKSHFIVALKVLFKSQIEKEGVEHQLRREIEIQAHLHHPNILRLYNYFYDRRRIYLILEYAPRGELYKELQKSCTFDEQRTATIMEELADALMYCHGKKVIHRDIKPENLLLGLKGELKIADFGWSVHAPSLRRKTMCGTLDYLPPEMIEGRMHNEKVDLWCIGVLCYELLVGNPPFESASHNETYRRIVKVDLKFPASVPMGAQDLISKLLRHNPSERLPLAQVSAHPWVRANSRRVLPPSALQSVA
Assay: KINOMEscan competition binding
Conditions: read-out: %Inh AURKB
recorded metric: inhibition at 1 µM (%)

{"columns": ["molecule", "readout number"],
 "data": [
  ["O=c1cc(N2CCOCC2)nc2n(Cc3cccc(Cl)c3Cl)c(C3CC3)nn12 [UNC10225469A]", 4],
  ["COc1cccc(OC)c1C(=O)Nc1cccc(-c2nn3ccccc3c2-c2ccnc(Nc3cccc(F)c3)n2)c1 [UNC10225310A]", 0],
  ["Cc1ccc(NC(=O)Nc2cccc(C(F)(F)F)c2)cc1 [UNC10225187A]", 0],
  ["CS(=O)(=O)Cc1ccc(Nc2nccc(-c3c(-c4cccc(NC(=O)C5CCCCC5)c4)nn4ncccc34)n2)cc1 [UNC10225159A]", 15],
  ["Cn1cc(-c2cnc(N)c3c(-c4ccc5c(c4)CCN5C(=O)Cc4ccccc4)csc23)cn1 [UNC10225012A]", 97.8]
]}

----------
Target: LZK (Homo sapiens)
Sequence (O43283 1-966): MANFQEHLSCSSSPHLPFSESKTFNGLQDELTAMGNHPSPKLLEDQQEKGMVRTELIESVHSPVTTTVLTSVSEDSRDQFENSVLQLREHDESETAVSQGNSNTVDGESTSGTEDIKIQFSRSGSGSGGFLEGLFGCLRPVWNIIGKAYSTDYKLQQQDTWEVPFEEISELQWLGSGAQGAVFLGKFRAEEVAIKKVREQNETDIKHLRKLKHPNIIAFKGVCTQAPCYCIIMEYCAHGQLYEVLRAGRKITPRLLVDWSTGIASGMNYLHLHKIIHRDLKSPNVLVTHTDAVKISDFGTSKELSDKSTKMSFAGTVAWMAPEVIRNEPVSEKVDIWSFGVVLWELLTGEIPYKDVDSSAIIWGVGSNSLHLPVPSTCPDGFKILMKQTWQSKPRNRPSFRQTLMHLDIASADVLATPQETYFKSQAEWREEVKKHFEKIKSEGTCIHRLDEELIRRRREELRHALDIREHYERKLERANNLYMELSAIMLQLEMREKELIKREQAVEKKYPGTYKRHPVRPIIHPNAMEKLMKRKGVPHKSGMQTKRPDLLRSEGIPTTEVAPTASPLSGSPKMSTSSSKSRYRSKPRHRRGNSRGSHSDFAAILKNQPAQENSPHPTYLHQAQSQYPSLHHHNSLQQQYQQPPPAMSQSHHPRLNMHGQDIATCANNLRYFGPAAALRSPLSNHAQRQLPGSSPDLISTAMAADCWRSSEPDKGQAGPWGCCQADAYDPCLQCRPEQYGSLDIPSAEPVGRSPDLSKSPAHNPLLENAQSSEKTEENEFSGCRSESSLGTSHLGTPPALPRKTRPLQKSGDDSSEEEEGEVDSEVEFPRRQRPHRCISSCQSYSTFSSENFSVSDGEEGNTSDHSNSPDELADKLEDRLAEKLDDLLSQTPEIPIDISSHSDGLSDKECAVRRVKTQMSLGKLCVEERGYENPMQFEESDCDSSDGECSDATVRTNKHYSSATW
Assay: KINOMEscan competition binding
Settings: read-out: %Inh LZK
recorded metric: inhibition at 1 µM (%)

{"columns": ["compound", "readout number"],
 "data": [
  ["Cn1cc(-c2cnc(N)c3c(-c4ccc5c(c4)CCN5C(=O)Cc4ccccc4)csc23)cn1 [UNC10225012A]", 0],
  ["CS(=O)(=O)Cc1ccc(Nc2nccc(-c3c(-c4cccc(NC(=O)C5CCCCC5)c4)nn4ncccc34)n2)cc1 [UNC10225159A]", 0],
  ["Cc1ccc(NC(=O)Nc2cccc(C(F)(F)F)c2)cc1 [UNC10225187A]", 0],
  ["COc1cccc(OC)c1C(=O)Nc1cccc(-c2nn3ccccc3c2-c2ccnc(Nc3cccc(F)c3)n2)c1 [UNC10225310A]", 8],
  ["O=c1cc(N2CCOCC2)nc2n(Cc3cccc(Cl)c3Cl)c(C3CC3)nn12 [UNC10225469A]", 0]
]}

----------
Recorded inhibition at 1 µM by entry
Target: UniProt:P21127
Sequence (P21127 whole entry): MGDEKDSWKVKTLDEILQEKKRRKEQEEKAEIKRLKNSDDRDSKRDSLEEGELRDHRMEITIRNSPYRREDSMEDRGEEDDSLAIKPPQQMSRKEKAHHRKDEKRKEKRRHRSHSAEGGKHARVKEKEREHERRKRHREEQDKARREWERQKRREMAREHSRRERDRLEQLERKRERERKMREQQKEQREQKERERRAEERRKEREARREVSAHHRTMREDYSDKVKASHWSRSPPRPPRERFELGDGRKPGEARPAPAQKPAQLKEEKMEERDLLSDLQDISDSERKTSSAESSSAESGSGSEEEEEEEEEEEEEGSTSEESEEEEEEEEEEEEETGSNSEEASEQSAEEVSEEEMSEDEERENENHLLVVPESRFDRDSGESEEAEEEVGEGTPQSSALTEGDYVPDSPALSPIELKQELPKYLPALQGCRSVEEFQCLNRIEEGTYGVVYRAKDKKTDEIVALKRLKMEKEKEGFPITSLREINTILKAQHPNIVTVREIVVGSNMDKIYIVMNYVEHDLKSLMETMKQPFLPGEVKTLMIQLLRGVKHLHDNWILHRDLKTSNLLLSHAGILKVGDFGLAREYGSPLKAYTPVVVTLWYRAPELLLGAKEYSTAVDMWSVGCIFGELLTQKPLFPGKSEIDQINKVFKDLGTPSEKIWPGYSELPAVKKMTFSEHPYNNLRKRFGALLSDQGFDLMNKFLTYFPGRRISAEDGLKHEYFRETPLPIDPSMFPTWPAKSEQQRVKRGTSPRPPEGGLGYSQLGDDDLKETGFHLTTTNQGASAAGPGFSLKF
Experiment: KINOMEscan competition binding
Settings: read-out: %Inh CDC2L1

{"columns": ["compound", "tested target", "measurement units", "inhibition at 1 µM"],
 "data": [
  ["O=c1cc(N2CCOCC2)nc2n(Cc3cccc(Cl)c3Cl)c(C3CC3)nn12 [UNC10225469A]", "UniProt:P21127", "%", 0],
  ["Cn1cc(-c2cnc(N)c3c(-c4ccc5c(c4)CCN5C(=O)Cc4ccccc4)csc23)cn1 [UNC10225012A]", "UniProt:P21127", "%", 4],
  ["Cc1ccc(NC(=O)Nc2cccc(C(F)(F)F)c2)cc1 [UNC10225187A]", "UniProt:P21127", "%", 3],
  ["CS(=O)(=O)Cc1ccc(Nc2nccc(-c3c(-c4cccc(NC(=O)C5CCCCC5)c4)nn4ncccc34)n2)cc1 [UNC10225159A]", "UniProt:P21127", "%", 0],
  ["COc1cccc(OC)c1C(=O)Nc1cccc(-c2nn3ccccc3c2-c2ccnc(Nc3cccc(F)c3)n2)c1 [UNC10225310A]", "UniProt:P21127", "%", 0]
]}

----------
Target: UniProtKB P36896
Sequence (P36896 24-505): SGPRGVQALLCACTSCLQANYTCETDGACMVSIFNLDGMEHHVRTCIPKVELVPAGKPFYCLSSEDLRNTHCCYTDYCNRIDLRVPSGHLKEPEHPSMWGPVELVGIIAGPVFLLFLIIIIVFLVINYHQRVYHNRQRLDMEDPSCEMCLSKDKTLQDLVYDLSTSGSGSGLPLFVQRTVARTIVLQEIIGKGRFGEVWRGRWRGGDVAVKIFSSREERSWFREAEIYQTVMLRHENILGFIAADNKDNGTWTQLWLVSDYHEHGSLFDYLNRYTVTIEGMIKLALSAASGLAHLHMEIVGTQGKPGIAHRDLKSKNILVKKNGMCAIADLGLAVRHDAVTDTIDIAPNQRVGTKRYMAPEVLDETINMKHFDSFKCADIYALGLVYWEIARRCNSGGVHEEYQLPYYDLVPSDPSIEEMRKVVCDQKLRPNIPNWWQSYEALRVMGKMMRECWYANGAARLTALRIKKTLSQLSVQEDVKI
Experiment: KINOMEscan competition binding
Conditions: read-out: %Inh ACVR1B
Listed here: items and their measured inhibition at 1 µM.

{"columns": ["compound", "tested target", "measurement units", "inhibition at 1 µM"],
 "data": [
  ["O=c1cc(N2CCOCC2)nc2n(Cc3cccc(Cl)c3Cl)c(C3CC3)nn12 [UNC10225469A]", "UniProtKB P36896", "%", 0],
  ["CS(=O)(=O)Cc1ccc(Nc2nccc(-c3c(-c4cccc(NC(=O)C5CCCCC5)c4)nn4ncccc34)n2)cc1 [UNC10225159A]", "UniProtKB P36896", "%", 0],
  ["Cc1ccc(NC(=O)Nc2cccc(C(F)(F)F)c2)cc1 [UNC10225187A]", "UniProtKB P36896", "%", 85],
  ["Cn1cc(-c2cnc(N)c3c(-c4ccc5c(c4)CCN5C(=O)Cc4ccccc4)csc23)cn1 [UNC10225012A]", "UniProtKB P36896", "%", 9],
  ["COc1cccc(OC)c1C(=O)Nc1cccc(-c2nn3ccccc3c2-c2ccnc(Nc3cccc(F)c3)n2)c1 [UNC10225310A]", "UniProtKB P36896", "%", 15]
]}
